src = PubChem BioAssay (NCI)

Tested on: HCT-15 colon
ASSAY_OVERVIEW: NCI-60 one-dose screen, 48 h (100 = growth as untreated, 0 = no growth, -100 = all killed)
CONDITION_PARAMETERS: 10 µM unless noted
Compounds without any hit were thinned out: in the full panel of roughly 83,000, 20% have a hit.
Please assign a class to every record based on measured growth, with ranges lower bin: < 30%; middle bin: ≥ 30% and < 90%; upper bin: ≥ 90%

MOLECULE	CATEGORY
CCCN1C(=O)/C(=c2\sc3n(c2=O)NC2C(N=3)N(CC)C(=O)N2CC)c2ccccc21 (stereo not given)	lower bin
CN1CCCc2cc(/C=C3\SC(=S)N(C(Cc4ccc(O)cc4)C(=O)O)C3=O)ccc21 (stereo not given)	upper bin
COc1ccc(-c2csc(NC(=O)CN3CCN(CCO)CC3)n2)cc1NS(=O)(=O)c1cccc2c(N(C)C)cccc12	middle bin
N=c1ccccn1CCO	middle bin
COC(=O)c1[nH]nc(OC)c1C1(C(C#N)c2nc3ccccc3s2)CCCc2ccccc21 (stereo not given)	upper bin
C=C1C(=O)O[C@H]2[C@H]1CC/C(CNS(=O)(=O)c1ccc3ccccc3c1)=C\CC[C@@]1(C)O[C@@H]21	lower bin
CCOC(=O)c1c(-c2ccc(C)cc2)c(C#N)c(=O)n(-c2cccc(C(F)(F)F)c2)c1N	upper bin
Cc1cnc(C(=O)NNc2nc3sc4c(c3c(=O)[nH]2)C(C)CCC4)cn1 (stereo not given)	lower bin
CCN(CC)CC#CCOC(=O)[C@]1(C)CCC[C@]2(C)c3ccc(C(C)C)cc3CC[C@@H]12	middle bin
Oc1ccccc1C=Nc1ccc(N2CCN(c3ccccc3)CC2)cc1	upper bin
Cc1c(O)c(O)cc2c3c(oc12)CC(c1ccc2c(c1)OCO2)CC3=O (stereo not given)	middle bin
COC1=CC(=O)C(OC)=C(O)C1=O	upper bin
COc1ccc(Nc2nn3c(SCC(=O)c4ccc(C)cc4)nnc3s2)cc1	upper bin
C=C1CC[C@@H]2[C@](C)(COC(C)=O)[C@H](OC(C)=O)CC[C@@]2(C)[C@@H]1CC(Nc1ccc(S(=O)(=O)Nc2nccs2)cc1)C1=CCOC1=O (stereo not given in full)	lower bin
COc1ccc(-c2ccc(-c3ccc(C(=N)N)cn3)s2)cc1Cl	lower bin
CC(C)(C)CC(N)=O	upper bin
O=c1ccc2nc(-c3ccccn3)nn(-c3ccccc3)c-2c1	lower bin
CCCN1C(=O)/C(=c2\sc3n(c2=O)C2C(NN=3)N(CC)C(=O)N2CC)c2ccccc21 (stereo not given)	lower bin

----------
System: TK-10 renal
ASSAY_OVERVIEW: NCI-60 one-dose screen, 48 h
CONDITION_PARAMETERS: 10 µM unless noted
This is part of a sample that, as a whole, favours compounds with a hit. Of some 83,000 tested, about 20% had one in any assay. Active and inactive are the calls of the source. The calls were made as follows: active = growth percent below 10; inactive = the rest.
Possible outcomes: 1 (yes) (active), 0 (no) (inactive)

COMPOUND	CATEGORY
CON1CCC[C@]2(C)[C@H]3CC[C@@H]4[C@H]5[C@@H](O)C(C)(C)CC[C@]5(CO)CC[C@@]4(C)[C@]3(C)CC[C@H]2C1(C)C	0 (no)
COc1ccc(CCNC(=O)COc2cc3c(Nc4ccc(F)c(Cl)c4)ncnc3cc2OC)cc1OC	0 (no)
CN1C(=O)/C(=C/c2ccc(C(=O)Nc3ncc(Cc4ccccc4Cl)s3)cc2)SC1=S	0 (no)
O=C(NNc1ccccc1)C1CCCN1 (centres undefined)	0 (no)
O=C1C(=C(O)c2ccccc2)C(=O)c2ccccc21	0 (no)
O=C1OCC2=C1C(c1cccc(C(F)(F)F)c1)c1cc3c(cc1N2CCO)OCCO3 (centres undefined)	0 (no)
c1ccc(Cc2cccc[n+]2C(c2ccccc2)c2ccccc2)cc1	0 (no)
CC1(Cc2ccccc2)CC2=C(C(=O)O1)C(c1ccccc1)NC(=O)N2 (centres undefined)	0 (no)
CS(=O)(=O)Nc1cc(-c2ccc3ncnc(Nc4ccc(F)c(Cl)c4)c3c2)cnc1Cl	1 (yes)
CCOC(=O)C(=Cc1ccc(C#N)cc1)C(=O)OCC	1 (yes)
COc1ccc(/C=C/C(=O)c2cc3c(N)c(C(=O)Nc4ccccc4)sc3nc2C)cc1	0 (no)
[Cu+].[NH-][C@H]1C[N-]C(=O)[C@H]([C@H]2CCN=C(N)N2)[N-]C(=O)/C(=C\NC(N)=O)[N-]C(=O)[C@H](CNC(=O)C[C@@H](N)CCCN)[N-]C(=O)[C@H](CO)[N-]C1=O	0 (no)
Cc1ccc(-c2nc3nc(-c4ccc(F)cc4)nc(N4CCCNCC4)c3o2)cc1	1 (yes)
COc1ccc(Oc2nc(Nc3ccc(N4CCOCC4)cc3)ncc2NC(=O)c2cc(OC)cc(OC)c2)cc1	0 (no)
COc1ccc(/C=C(\C#N)c2cc3ccccc3[nH]2)cc1	0 (no)
Cn1cc(-c2nc3c(F)cc4[nH]ncc4c3c3c2CCCC3)c(C(F)F)n1	0 (no)
COCCOc1cc2ncnc(N3CCN(S(=O)(=O)c4ccccc4Cl)CC3)c2cc1OCCOC	0 (no)
COc1ccc(NC(=O)Nc2ccccc2CNc2nc(Nc3ccc(OCCN4CCCC4)cc3)ncc2Cl)cc1	1 (yes)
O=C(c1cccc(Br)c1)N1CCN(c2ccnc3cc(Cl)ccc23)CC1	0 (no)
N#Cc1c(N)nnn1Cc1cc(=O)oc2ccc(O)cc12	0 (no)
CC(=O)N1N=C(c2ccc(F)cc2)CC1c1sc(N(C)Cc2ccccc2)nc1Cl (centres undefined)	0 (no)
Cc1ccc2[nH]c(=S)[nH]c(=O)c2c1	0 (no)
CCOC(=O)c1c(-c2ccc(C)cc2)c(C#N)c(=O)n(-c2cccc(C(F)(F)F)c2)c1N	0 (no)
O=C1Nc2ccccc2/C1=C/c1cccn1CCCCCn1c2ccccc2c(=O)c2ccccc21	0 (no)
COc1ccc(C/C(C)=C(/c2ccc(OCCN3CCCCCC3)cc2)c2ccc(OC(=O)c3ccccc3)cc2)cc1	0 (no)
O=C1c2cc3c(cc2-c2c1c1ccc(Cl)cc1c(=O)n2CCCn1ccnc1)OCO3	0 (no)
Cc1ccc(-c2nc3nc(-c4ccccc4)nc(N4CCN(S(=O)(=O)c5ccccc5)CC4)c3o2)cc1	0 (no)
O=C(CCCCCCCCC(=O)N/N=C\c1ccccc1O)N/N=C\c1ccccc1O	0 (no)
CNC(=O)c1cc(Oc2ccc3nc(NC(=O)Nc4ccc(C(F)(F)F)cc4)sc3c2)ccn1	0 (no)
COc1ccc(/C=C2\COc3ccc(O)c(O)c3C2=O)c(OC)c1OC	0 (no)
COc1ccc(Cl)cc1Nc1nc(C(F)(F)F)ccc1C(=O)N/N=C/c1ccc(N(C)C)cc1	0 (no)
COc1cc(NS(=O)(=O)C(C)C)cc(-c2cc(-c3ccc(N4CCNCC4)cc3)cnc2N)c1	0 (no)
O=C(Nc1ncc(Cc2cccc(C(F)(F)F)c2)s1)c1ccc2c(c1)OCCO2	0 (no)
Brc1ccc(/C=C(/C2=NCCN2)n2ccc3ccccc32)cc1	0 (no)
